Reported values of Ki for individual entries
# Measured On: aggregated beta amyloid in AD tissue (Homo sapiens)
# Sequence (P05067 672-711 limits assumed): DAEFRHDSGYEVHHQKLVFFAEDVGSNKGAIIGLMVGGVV
# Procedure Details: Competitive radioligand binding to pathological aggregated beta amyloid in AD tissue (Assay 2), displacement of [^3H]-105
# Conditions: Aβ-rich AD frontal cortex homogenate, [^3H]-105, Kd 11.0 nM
Measured Metric: Ki

INSERT INTO assay_data (structure_smiles_string, recorded_value) VALUES
  ('COCc1cnc(N2CCN(c3ncc(/C=C/c4ccc(-n5ccnc5)nc4)cn3)[C@@H](COC)C2)nc1', '≥ 12000 nM'),
  ('COC[C@H]1CN(c2ncc(C#Cc3ccc(-c4cnn(CCOCCF)c4)nc3)cn2)CCN1c1ncncn1', '≥ 1200 nM'),
  ('COC[C@H]1CN(c2ncc(/C=C/c3ccc(-n4ccnc4)nc3)cn2)CCN1c1ncc(F)cn1', '80 nM'),
  ('COC[C@H]1CN(c2ccc(F)nc2)CCN1c1ncc(/C=C/c2ccc(-n3ccnc3)nc2)cn1', '≥ 12000 nM'),
  ('Cn1cc(-c2ncc(C#Cc3cnc(N4CCN(c5ncncn5)[C@@H](COCCOCCF)C4)nc3)cn2)cn1', '≥ 1200 nM'),
  ('OC[C@H]1CN(c2ccncn2)CCN1c1ncc(/C=C/c2ccc(-n3ccnc3)nc2)cn1', '120 nM'),
  ('OC[C@H]1CN(c2ncc(C#Cc3ccc(-n4ccnc4)nc3)cn2)CCN1c1ncccn1', '≥ 12000 nM'),
  ('COC[C@H]1CN(c2cc(F)ccn2)CCN1c1ncc(/C=C/c2ccc(-n3ccnc3)nc2)cn1', '≥ 12000 nM');

###

# Measured On: triton-extracted alpha-synuclein from PD Tissue (Homo sapiens)
# Construct: tissue Analytic Biological Services Inc; host or cells: human PD temporal cortex grey matter, Triton X-100 insoluble pellet
# Procedure Details: Alpha-synuclein tissue homogenate binding assay (Assay 1), displacement of [^3H]-1000
# Conditions: insoluble fraction of PD brain homogenate, [^3H]-1000 3.0 nM, Kd 0.90 nM; read-out: α-synuclein Tissue Ki (Assay 1)
pKi: −log10 of the molar value.
Entries and their pKi values follow.
Measured Metric: pKi

INSERT INTO results (structure_smiles_string, recorded_value) VALUES
  ('Cn1cc(-c2ncc(C#Cc3cnc(N4CCN(c5ccncn5)[C@@H](COCCF)C4)nc3)cn2)cn1', 9.49),
  ('Cn1cc(-c2ncc(C#Cc3cnc(N4CCN(c5ncccn5)[C@@H](COCCF)C4)nc3)cn2)cn1', 8.74),
  ('FCCOCCOC[C@H]1CN(c2ncc(C#Cc3cnc(-c4cncnc4)nc3)cn2)CCN1c1ncncn1', 8.27),
  ('COC[C@H]1CN(c2ncc(C#Cc3ccc(-n4cnnc4)nc3)c(F)n2)CCN1c1ccncn1', 8.78),
  ('FCCOC[C@H]1CN(c2ncc(/C=C/c3ccc(-c4cnco4)nc3)cn2)CCN1c1ncccn1', 9.03),
  ('FCCOC[C@@H]1CN(c2ncc(C#Cc3ccc(-c4cnco4)nc3)cn2)CCN1c1ncncn1', 8.83),
  ('C[C@H]1CN(c2ccc(F)cn2)CCN1c1ncc(C#Cc2cnc(-n3cnnc3)nc2)cn1', 8.59),
  ('Cn1cc(-c2ncc(C#Cc3cnc(N4CCN(c5ncncn5)C[C@H]4COCCF)nc3)cn2)cn1', 8.26);

###

# Measured On: aggregated beta amyloid in AD tissue (Homo sapiens)
# Procedure Details: Competitive radioligand binding to pathological aggregated beta amyloid in AD tissue (Assay 2), displacement of [^3H]-105
# Conditions: Aβ-rich AD frontal cortex homogenate, [^3H]-105, Kd 11.0 nM
pKi: −log10 of the molar value.
Measured Metric: pKi

INSERT INTO measurements (structure_smiles_string, recorded_value) VALUES
  ('COC[C@H]1CN(c2ncc(C#Cc3ccc(-c4cnco4)nc3)cn2)CCN1c1ncc(OCCF)cn1', '≤ 5.92'),
  ('Cn1cc(-c2ncc(C#Cc3cnc(N4CCN(c5ncncn5)[C@@H](COCCF)C4)nc3)cn2)cn1', '≤ 5.92'),
  ('FCCOC[C@H]1CN(c2ncc(/C=C/c3ccc(-c4cnco4)nc3)cn2)CCN1c1ncccn1', '≤ 4.92'),
  ('COC[C@H]1CN(c2ncc(C)cn2)CCN1c1ncc(/C=C/c2ccc(-n3ccnc3)nc2)cn1', 6.44),
  ('OC[C@H]1CN(c2ccc(F)nc2)CCN1c1ncc(/C=C/c2ccc(-n3ccnc3)nc2)cn1', '≤ 4.92'),
  ('COC[C@H]1CN(c2ncc(/C=C/c3ccc(-n4ccnc4)nc3)cn2)CCN1c1ncccn1', '≤ 4.92');
